- testedTarget: T1, human GITR-His (human, UniProt Q9Y5U5 26-161)
- T1 construct: Bought from Acro biosystems; also called GITR-His (Acro biosystems); antigen GITR-His
- T1 sequence: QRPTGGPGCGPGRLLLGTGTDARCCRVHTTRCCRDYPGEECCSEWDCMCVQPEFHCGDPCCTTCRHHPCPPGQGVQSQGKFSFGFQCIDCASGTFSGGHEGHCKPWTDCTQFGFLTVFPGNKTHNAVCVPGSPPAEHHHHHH
- runDescription: PE-ELISA, crude nanobody on coated GITR-His, anti-HA detection
Measured Sample OD (+) of individual entries

Return the recorded Sample OD (+) value; entry: Nb-08 (VHH, Tested as crude extract from E. coli (osmotic shock)) VHH: QVQLQESGGGSVQAGGSLRLSCAASGYTSSRKYIGWFRQAPGKQREWVAGIDTGAGGTCTIASVQGRFTISQDVAKNTLYLQIDSLKPEDTAVYYCAADWVRGGFCSGDADFRYWGQGTQVTVSS
1.71 OD (405 nm)

Look up and state reported Sample OD (+) for Nb-22 (VHH, Tested as crude extract from E. coli (osmotic shock)) VHH: QVQLQESGGGSVQAGGSLRLSCAASGYTFTTAYMGWFRQAPGKEREGVAAIDSDGRTEYADAVKGRFTISKDNAKNTLYLQMNSLKPEDTAMYYCAADKDDWLLLHGRSLFPSAFAYWGQGTQVTVSS
0.606 OD (405 nm)

Tell me measured Sample OD (+) for Nb-16 (VHH, Tested as crude extract from E. coli (osmotic shock)) VHH: QVQLQESGGGSVQAGGSLRLSCAASGYTYNKYSWGWFRQAPGKEREGVAGIDSDGSTSYADSVKGRFTISKDNTKNTLYLQMNSLKPEDTAMYYCAASDWVSAIQALGVLAVRPYEYWGQGTQVTVSS please.
1.67 OD (405 nm)

Read off the recorded Sample OD (+) for Nb-06 (VHH, Tested as crude extract from E. coli (osmotic shock)) VHH: QVQLQESGGGSVQAGGSLRLSCAASGYAYTRNCMGWFRQAPGKEREEVATINLGGGSTYYADSVKGRFAISQDNAKNTVYLQMNNLKPEDTAMYYCAAIAQYGGSLCSNFGWYNLWGQGTQVTVSS
0.314 OD (405 nm)
